Known pKd of a selection of sequences
molecular target: Hck-SH3 (Homo sapiens, UniProt P08631); test: Fluorescence titration (intrinsic tryptophan fluorescence), binding constant; details: Hck SH3 domain; fluorescence titration, 0,5 µM SH3 domain in PBS, 1mM DDT; each experiment done twice
Sequence (P08631 78-138 limits assumed): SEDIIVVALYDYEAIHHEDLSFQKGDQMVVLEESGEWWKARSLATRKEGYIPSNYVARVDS
Where no end group is shown, it is not given here.
In textbook form, pKd equals minus log to base ten of the concentration in mol/L.

[[record]]
primary_sequence = "HSKRPLPPLPSL [PD1-R]"
readout_kind = "pKd"
observed_measurement = 6.33


Now for another entry.
Ask | What pKd value was documented for this sequence, HSKYPLPPLPSL [PD1] ?
Reply | 6.64
